Where these numbers come from: patent US12264173B2

Below, each entry is listed alongside its reported EC50.
biological target: HCV Rep 2A; test: HCV Rep 2A EC50 (replicon luciferase); format: cell-based; settings: Table 4; replicon cells, 3 days; read-out: HCV Rep 2A EC50

compound	readout.units	EC50
CC(C)C(=O)OC1C(c2ccc3c(N)ncnn23)OC(C#N)(COP(=O)(NC(C)C(=O)OC2CCN(C)C2)Oc2ccccc2)C1OC(=O)C(C)C (single isomer, unassigned) [Example 234]	nM	1820
CCC(=O)O[C@H]1[C@H](c2ccc3c(N)ncnn23)O[C@](C#N)(CO[P@@](=O)(N[C@@H](C)C(=O)OCC2CC2)Oc2ccccc2)[C@H]1OC(=O)CC [Example 99]	nM	599
CC(C)C(=O)O[C@H]1[C@H](c2ccc3c(N)ncnn23)O[C@](C#N)(COP(=O)(N[C@@H](C)C(=O)OC2COC2)Oc2ccccc2)[C@H]1OC(=O)C(C)C (single isomer, unassigned) [Example 185]	nM	730
CC(C)C(=O)O[C@H]1[C@H](c2ccc3c(N)ncnn23)O[C@](C#N)(COP(=O)(N[C@@H](C)C(=O)OC2COC2)Oc2ccccc2)[C@H]1OC(=O)C(C)C (single isomer, unassigned) [Example 186]	nM	836

* * *

target: UniProt O00411; assay: Inhibition of human mitochondrial RNA polymerase (POLRMT); format: biochemical; settings: nucleotide triphosphate
Sequence (O00411 42-1230): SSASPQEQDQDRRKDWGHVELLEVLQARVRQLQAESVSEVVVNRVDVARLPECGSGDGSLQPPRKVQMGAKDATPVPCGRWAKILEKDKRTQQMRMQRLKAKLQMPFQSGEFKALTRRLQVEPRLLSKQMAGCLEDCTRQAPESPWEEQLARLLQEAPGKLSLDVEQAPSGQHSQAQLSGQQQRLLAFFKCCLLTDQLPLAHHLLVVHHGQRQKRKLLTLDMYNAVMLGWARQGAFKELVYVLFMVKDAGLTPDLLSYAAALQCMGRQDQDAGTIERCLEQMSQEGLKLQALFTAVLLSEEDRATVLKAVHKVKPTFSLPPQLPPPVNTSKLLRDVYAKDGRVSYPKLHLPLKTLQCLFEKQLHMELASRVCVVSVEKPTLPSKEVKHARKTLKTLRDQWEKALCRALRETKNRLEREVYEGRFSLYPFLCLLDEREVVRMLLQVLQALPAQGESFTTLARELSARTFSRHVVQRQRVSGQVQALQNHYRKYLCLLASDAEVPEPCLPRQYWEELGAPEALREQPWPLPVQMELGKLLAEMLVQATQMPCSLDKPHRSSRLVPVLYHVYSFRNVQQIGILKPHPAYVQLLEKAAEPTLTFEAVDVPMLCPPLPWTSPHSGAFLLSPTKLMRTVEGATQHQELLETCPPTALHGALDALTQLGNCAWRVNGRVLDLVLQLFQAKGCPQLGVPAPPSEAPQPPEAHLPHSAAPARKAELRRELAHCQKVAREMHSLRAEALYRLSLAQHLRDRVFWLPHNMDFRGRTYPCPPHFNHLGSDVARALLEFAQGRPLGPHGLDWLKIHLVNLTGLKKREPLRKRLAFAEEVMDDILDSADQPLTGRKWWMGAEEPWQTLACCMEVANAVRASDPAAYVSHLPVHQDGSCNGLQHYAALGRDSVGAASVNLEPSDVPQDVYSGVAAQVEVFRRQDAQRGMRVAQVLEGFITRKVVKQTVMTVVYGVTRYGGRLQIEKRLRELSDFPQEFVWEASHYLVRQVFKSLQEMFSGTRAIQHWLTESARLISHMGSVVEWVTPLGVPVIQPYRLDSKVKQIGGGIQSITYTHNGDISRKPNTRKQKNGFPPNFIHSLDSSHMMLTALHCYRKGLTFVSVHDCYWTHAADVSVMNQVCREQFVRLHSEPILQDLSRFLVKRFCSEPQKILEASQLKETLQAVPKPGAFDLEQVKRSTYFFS
Below, each entry is listed alongside its reported IC50.
property: IC50 (nM)

In [3]: df
Out[3]:
                                   compound  readout_units  value_modifier  test_value
0  [N-]=[N+]=N[C@]1(COP(=O)(O)OP(=O)(O)OP(=O)(O)O)O[C@@H](c2ccc3c(N)ncnn23)[C@H](O)[C@@H]1O [—N3]             nM               =         900
1  N#C[C@]1(COP(=O)(O)OP(=O)(O)OP(=O)(O)O)O[C@@H](c2ccc3c(N)ncnn23)[C@H](O)[C@@H]1O [—CN]             nM               >      200000

* * *

target: HCV Rep 1B; test: HCV Rep 1B EC50 (replicon luciferase); assay type: cell-based; settings: Table 4; replicon cells, 3 days; read-out: HCV Rep 1B EC50

molecule	readout.units	EC50
CC(C)C(=O)OC1C(c2ccc3c(N)ncnn23)OC(C#N)(COP(=O)(NC(C)C(=O)OC2CCN(C)C2)Oc2ccccc2)C1OC(=O)C(C)C (single isomer, unassigned) [Example 234]	nM	905
CC(C)C(=O)O[C@H]1[C@H](c2ccc3c(N)ncnn23)O[C@](C#N)(COP(=O)(N[C@@H](C)C(=O)OC2COC2)Oc2ccccc2)[C@H]1OC(=O)C(C)C (single isomer, unassigned) [Example 185]	nM	217
CC(C)C(=O)O[C@H]1[C@H](c2ccc3c(N)ncnn23)O[C@](C#N)(COP(=O)(N[C@@H](C)C(=O)OC2COC2)Oc2ccccc2)[C@H]1OC(=O)C(C)C (single isomer, unassigned) [Example 186]	nM	306
CCC(=O)O[C@H]1[C@H](c2ccc3c(N)ncnn23)O[C@](C#N)(CO[P@@](=O)(N[C@@H](C)C(=O)OCC2CC2)Oc2ccccc2)[C@H]1OC(=O)CC [Example 99]	nM	313
